Recorded values, source paper PMC12063173.

MEASUREMENT_NOTES: Plasma pharmacokinetics of phenolic metabolites after oral capsule of (poly)phenol-rich Mediterranean extract mixture
CONDITION: oral capsule, 0-24 h, n = 6 per time point
RESULT_TYPE: MRT0-t plasma (h)

O=S(=O)(O)Oc1ccc(CCO)cc1 [tyrosol 4-O-sulfate]    7.15
O=C(O)CCc1ccc(O)c(OS(=O)(=O)O)c1 [dihydrocaffeic acid 3-O-sulfate]    9.0
COc1ccc([C@@H]2CC(=O)c3c(O)cc(O[C@@H]4O[C@H](C(=O)O)[C@@H](O)[C@H](O)[C@H]4O)cc3O2)cc1O [hesperetin 7-O-glucuronide]    11

###

MEASUREMENT_NOTES: Perfused brain (PB) kinetics of phenolic metabolites after oral capsule
Type: in vivo, Sprague–Dawley rats
CONDITION: male, Sprague-Dawley, rat, 22 mg extract blend per capsule, one capsule per animal; perfused brain, oral capsule, 0-24 h, n = 3 per time point
Source text: Statistical analyses were applied depending on the experimental context.
Classify: Condition met when Tmax is strictly less than 5 h; Condition not met when Tmax is not.

O=C(O)CCCCc1cccc(O)c1 [5-(3-hydroxyphenyl)-valeric acid]    Condition met
O=C(O)CCc1cccc(O)c1 [3-(3-hydroxyphenyl) propionic acid]    Condition met
O=C(O)c1ccc(O)cc1O [2,4-dihydroxybenzoic acid]    Condition not met
O=C(O)CCc1ccc(O)c(O)c1 [dihydrocaffeic acid]    Condition met
O=c1oc2c(O)c(O)cc3c(=O)oc4c(O)c(O)cc1c4c23    Condition not met
O=C(O)CCc1ccccc1O [3-(2-hydroxyphenyl) propionic acid]    Condition not met

###

MEASUREMENT_NOTES: in vivo
CONDITION: male, Sprague-Dawley, rat, po
RESULT_TYPE: Tmax

O=S(=O)(O)Oc1ccc(C=Cc2cc(O)cc(O)c2)cc1 [resveratrol 4’-O-sulfate]    7.3 h

###

Here the recorded Tmax plasma is given for each entry.
MEASUREMENT_NOTES: Plasma pharmacokinetics of phenolic metabolites after oral capsule of (poly)phenol-rich Mediterranean extract mixture
CONDITION: oral capsule, 0-24 h, n = 6 per time point
RESULT_TYPE: Tmax plasma (h)

O=S(=O)(O)Oc1ccc(CCO)cc1 [tyrosol 4-O-sulfate]    1
O=S(=O)(O)Oc1ccc(CCO)cc1O [hydroxytyrosol 4′-O-sulfate]    1
COc1ccc([C@@H]2CC(=O)c3c(O)cc(O[C@@H]4O[C@H](C(=O)O)[C@@H](O)[C@H](O)[C@H]4O)cc3O2)cc1O [hesperetin 7-O-glucuronide]    4.2
O=C(O)CCc1ccc(O)c(OS(=O)(=O)O)c1 [dihydrocaffeic acid 3-O-sulfate]    4.5

###

MEASUREMENT_NOTES: Nonperfused brain (NPB) kinetics of phenolic metabolites after oral capsule
Format: in vivo, Sprague–Dawley rats
CONDITION: male, Sprague-Dawley, rat, 22 mg extract blend per capsule, one capsule per animal; nonperfused brain, oral capsule, 0-24 h, n = 3 per time point; read-out: T1/2 NPB (converted)
RESULT_TYPE: half-life (h)

O=C(O)CCCCc1cccc(O)c1 [5-(3-hydroxyphenyl)-valeric acid]    70
O=C(O)c1ccc(O)cc1O [2,4-dihydroxybenzoic acid]    5.4
O=C(O)CCc1cccc(O)c1 [3-(3-hydroxyphenyl) propionic acid]    20
O=c1oc2c(O)c(O)cc3c(=O)oc4c(O)c(O)cc1c4c23    36.3

###

MEASUREMENT_NOTES: Plasma pharmacokinetics of phenolic metabolites after oral capsule of (poly)phenol-rich Mediterranean extract mixture
CONDITION: oral capsule, 0-24 h, n = 6 per time point
Here the recorded Tmax plasma is given for each entry.
RESULT_TYPE: Tmax plasma (h)

O=S(=O)(O)Oc1cc(CCO)ccc1O [hydroxytyrosol 3-O-sulfate]    1.4
O=C1CCC(Cc2ccc(O)c(OS(=O)(=O)O)c2)O1 (stereo not shown)    4.5
O=C(O)C=Cc1ccc(O)c(OS(=O)(=O)O)c1 [caffeic acid 3-O-sulfate]    8.6
O=C(O)C=Cc1ccc(OS(=O)(=O)O)cc1 [p-coumaric acid 4-O-sulfate]    3.6
COc1ccc(C2CC(=O)c3c(O)cc(O)cc3O2)cc1O[C@@H]1O[C@H](C(=O)O)[C@@H](O)[C@H](O)[C@H]1O (stereo partly shown) [hesperetin 3′-O-glucuronide]    5.7
COc1cc(/C=C/C(=O)O)ccc1OS(=O)(=O)O [ferulic acid 4-O-sulfate]    4.2
O=C(O)[C@H]1O[C@@H](Oc2cc(O)cc(CCc3ccc(O)cc3)c2)[C@H](O)[C@@H](O)[C@@H]1O [dihydroresveratrol 3-O-glucuronide]    6.2

###

MEASUREMENT_NOTES: Perfused brain (PB) kinetics of phenolic metabolites after oral capsule
Type: in vivo, Sprague–Dawley rats
CONDITION: perfused brain, oral capsule, 0-24 h, n = 3 per time point
Text: Statistical analyses were applied depending on the experimental context.
Here the recorded MRT0-t PB is given for each entry.
RESULT_TYPE: MRT0-t PB (h)

O=C(O)[C@H]1O[C@@H](Oc2cc(O)cc(CCc3ccc(O)cc3)c2)[C@H](O)[C@@H](O)[C@@H]1O [dihydroresveratrol 3-O-glucuronide]    23
O=S(=O)(O)Oc1cc(CCO)ccc1O [hydroxytyrosol 3-O-sulfate]    11
O=C(O)C=Cc1ccc(OS(=O)(=O)O)cc1 [p-coumaric acid 4-O-sulfate]    30
O=S(=O)(O)Oc1ccc(CCO)cc1O [hydroxytyrosol 4′-O-sulfate]    18
O=C(O)C=Cc1ccc(O)c(OS(=O)(=O)O)c1 [caffeic acid 3-O-sulfate]    8.7

###

Here the recorded Tmax is given for each entry.
MEASUREMENT_NOTES: Plasma pharmacokinetics of phenolic metabolites after oral capsule of (poly)phenol-rich Mediterranean extract mixture
CONDITION: male, Sprague-Dawley, rat, po, 22 mg extract blend per capsule, one capsule per animal
RESULT_TYPE: Tmax (h)

O=C(O)c1ccc(O)cc1O [2,4-dihydroxybenzoic acid]    12
O=C(O)CCc1ccccc1O [3-(2-hydroxyphenyl) propionic acid]    10
O=c1oc2c(O)c(O)cc3c(=O)oc4c(O)c(O)cc1c4c23    10
O=S(=O)(O)Oc1cc(O)cc(C=Cc2ccc(O)cc2)c1 [resveratrol 3-O-sulfate]    5.2
O=C(O)CCc1ccc(O)c(O)c1 [dihydrocaffeic acid]    2.6
O=C(O)CCc1cccc(O)c1 [3-(3-hydroxyphenyl) propionic acid]    13
O=C(O)CCCCc1cccc(O)c1 [5-(3-hydroxyphenyl)-valeric acid]    7.4

###

MEASUREMENT_NOTES: Perfused brain (PB) kinetics of phenolic metabolites after oral capsule
Type: in vivo, Sprague–Dawley rats
CONDITION: male, Sprague-Dawley, rat, 22 mg extract blend per capsule, one capsule per animal; perfused brain, oral capsule, 0-24 h, n = 3 per time point; read-out: MRT0-t PB
RESULT_TYPE: MRT last (h)

O=C(O)CCc1cccc(O)c1 [3-(3-hydroxyphenyl) propionic acid]    11

###

MEASUREMENT_NOTES: in vivo
CONDITION: male, Sprague-Dawley, rat, po
RESULT_TYPE: AUC(0-t)

O=S(=O)(O)Oc1ccc(C=Cc2cc(O)cc(O)c2)cc1 [resveratrol 4’-O-sulfate]    0.026 µM·h

###

MEASUREMENT_NOTES: Nonperfused brain (NPB) kinetics of phenolic metabolites after oral capsule
Format: in vivo, Sprague–Dawley rats
CONDITION: nonperfused brain, oral capsule, 0-24 h, n = 3 per time point
RESULT_TYPE: Cmax NPB (pmol/g tissue)

O=C(O)CCc1ccccc1O [3-(2-hydroxyphenyl) propionic acid]    0.3
O=c1oc2c(O)c(O)cc3c(=O)oc4c(O)c(O)cc1c4c23 [ellagic acid]    0.9
O=C(O)C=Cc1ccc(O)c(OS(=O)(=O)O)c1 [caffeic acid 3-O-sulfate]    0.24
COc1cc(/C=C/C(=O)O)ccc1OS(=O)(=O)O [ferulic acid 4-O-sulfate]    0.3
O=S(=O)(O)Oc1ccc(CCO)cc1 [tyrosol 4-O-sulfate]    4.7

###

MEASUREMENT_NOTES: Perfused brain (PB) kinetics of phenolic metabolites after oral capsule
Type: in vivo, Sprague–Dawley rats
Design: concentration or dose not given beside the values
CONDITION: perfused brain, oral capsule, 0-24 h, n = 3 per time point
Here the recorded AUC0-t PB is given for each entry.
RESULT_TYPE: AUC0-t PB (pmol·h/g)

O=C(O)c1ccc(O)cc1O [2,4-dihydroxybenzoic acid]    44
O=C(O)CCc1cccc(O)c1 [3-(3-hydroxyphenyl) propionic acid]    11
O=S(=O)(O)Oc1cc(CCO)ccc1O [hydroxytyrosol 3-O-sulfate]    16
O=S(=O)(O)Oc1cc(O)cc(C=Cc2ccc(O)cc2)c1 [resveratrol 3-O-sulfate]    0.1

###

MEASUREMENT_NOTES: in vivo
CONDITION: male, Sprague-Dawley, rat, po
RESULT_TYPE: Cmax (nM)

O=S(=O)(O)Oc1ccc(C=Cc2cc(O)cc(O)c2)cc1 [resveratrol 4’-O-sulfate]    2.9

###

MEASUREMENT_NOTES: Nonperfused brain (NPB) kinetics of phenolic metabolites after oral capsule
Type: in vivo, Sprague–Dawley rats
Parameters: concentration or dose not given beside the values
CONDITION: nonperfused brain, oral capsule, 0-24 h, n = 3 per time point
Class field: derived from AUC0-t NPB; ranges low interval = under 5 pmol·h/g, middle interval = from 5 pmol·h/g up to 30 pmol·h/g, high interval = 30 pmol·h/g and over

O=c1oc2c(O)c(O)cc3c(=O)oc4c(O)c(O)cc1c4c23    middle interval
COc1cc(/C=C/C(=O)O)ccc1OS(=O)(=O)O [ferulic acid 4-O-sulfate]    low interval
O=C(O)c1ccc(O)cc1O [2,4-dihydroxybenzoic acid]    high interval
O=C(O)C=Cc1ccc(O)c(OS(=O)(=O)O)c1 [caffeic acid 3-O-sulfate]    low interval
O=C(O)CCc1cccc(O)c1 [3-(3-hydroxyphenyl) propionic acid]    middle interval
O=C(O)CCc1ccccc1O [3-(2-hydroxyphenyl) propionic acid]    low interval
O=S(=O)(O)Oc1cc(CCO)ccc1O [hydroxytyrosol 3-O-sulfate]    high interval
O=C(O)C=Cc1ccc(OS(=O)(=O)O)cc1 [p-coumaric acid 4-O-sulfate]    low interval
O=S(=O)(O)Oc1ccc(CCO)cc1 [tyrosol 4-O-sulfate]    high interval
O=C(O)[C@H]1O[C@@H](Oc2cc(O)cc(CCc3ccc(O)cc3)c2)[C@H](O)[C@@H](O)[C@@H]1O [dihydroresveratrol 3-O-glucuronide]    middle interval
O=C(O)CCCCc1cccc(O)c1 [5-(3-hydroxyphenyl)-valeric acid]    high interval
O=C(O)CCc1ccc(O)c(O)c1 [dihydrocaffeic acid]    middle interval
O=S(=O)(O)Oc1ccc(CCO)cc1O [hydroxytyrosol 4′-O-sulfate]    high interval
O=S(=O)(O)Oc1cc(O)cc(C=Cc2ccc(O)cc2)c1 [resveratrol 3-O-sulfate]    low interval
